Please go through the items and note down their growth.
# Tested on: MCF7 breast
# RUN_DESCRIPTION: NCI-60 one-dose screen, 48 h (100 = growth as untreated, 0 = no growth, -100 = all killed)
# ASSAY_CONTEXT: 10 µM unless noted
About 83,000 compounds went through this panel and 20% of them were active in at least one assay; those are over-represented in the sample as a whole.
Give bare numbers, in %.

Here are 2 compounds together with their reported answers.
[
  {
    "COMPOUND": "CC(O)CCC(C)[N+](=O)[O-] (stereo not given)",
    "ASSAY_SYSTEM": "MCF7 breast",
    "VALUE_UNITS": "%",
    "growth": 101
  },
  {
    "COMPOUND": "C[C@H]1C[C@@H](n2cnc3c(N)nccc32)[C@H](O)[C@@H]1O",
    "ASSAY_SYSTEM": "MCF7 breast",
    "VALUE_UNITS": "%",
    "growth": 90.1
  }
]

Could I get growth for every one of these entries?
1. COc1ccc2cc(C(C)C(=O)Nc3ccc(S(=O)(=O)Nc4cc(C)on4)cc3)ccc2c1 (stereo not given)
2. COc1cccc2c1n([O-])c1cccc(OC)c1[n+]2=O
3. CN1NC(c2ccccc2)NN(C)C1=O
4. COc1ccc(/C=N/c2cc(C(C)(C)C)nn2-c2ccccc2)cc1

[102, 36.9, 96.3, 88.8]

Could I get growth for every one of these entries?
1. COc1cccc2c1nc1cccc(OC)c1[n+]2[O-]
2. CC1(c2ccc(Br)cc2)NC(=O)NC1=O (stereo not given)
3. CCCCN(CCCC)c1ccc(C(=O)O)cc1
4. COC(=O)[C@@H]1[C@H](O)[C@H](C)[C@H](O)[C@H](C)/C=C\C=C(C)C(=O)Nc2c(C)c(OC(C)=O)c3c(c2O)C(=O)C(C)=C2OCOC(=C23)C(C)=C[C@@](C)(O)[C@H](O)[C@@H](C)[C@H]1OC(C)=O

32.8
101
98.6
104

---

# Tested on: IGROV1 ovarian
# RUN_DESCRIPTION: NCI-60 one-dose screen, 48 h
# ASSAY_CONTEXT: 10 µM unless noted
The panel holds about 83,000 compounds, 20% with a hit somewhere; the sample as a whole holds those more often. The source made the active and inactive calls. How the source made its calls: active means growth percent below 10; inactive means the rest.
Bench note: report the call from 1 (yes) = active, 0 (no) = inactive

[
  {
    "CHEMICAL_STRUCTURE": "COC(=O)[C@H](Cc1cn(C)cn1)NC(=O)[C@@H](NC(=O)Nc1cc(C(F)(F)F)cc(C(F)(F)F)c1)C(C)(C)C",
    "CATEGORY": "1 (yes)"
  },
  {
    "CHEMICAL_STRUCTURE": "CCOC(=O)c1c2c(cn1Cc1ccccc1)-c1oncc1CC2",
    "CATEGORY": "0 (no)"
  },
  {
    "CHEMICAL_STRUCTURE": "COc1ccc(C2=C/C(=C\\c3ccc(Cl)cc3)C(=O)NN2C(=S)NN)cc1",
    "CATEGORY": "0 (no)"
  },
  {
    "CHEMICAL_STRUCTURE": "O=C(O)c1occ(Cl)c1Cl",
    "CATEGORY": "0 (no)"
  },
  {
    "CHEMICAL_STRUCTURE": "COc1ccc2c(c1)/C(=C/c1c(-c3cc(OC)c(OC)c(OC)c3)nc3sccn13)C(=O)N2",
    "CATEGORY": "0 (no)"
  }
]

Just curious, what result did CC(=O)/C(=C/c1ccc(-c2ccccc2)cc1)C(=O)c1ccccc1 get here?
0 (no)

Just curious, what result did CC1=C(C)C[C@]2(C(=O)O[C@H]3CCCC[C@@H]32)[S@](=O)C1 get here?
0 (no)

Just curious, what result did COC(=O)c1c[n+]([O-])ccc1OC get here?
0 (no)

Just curious, what result did CCCCCCCCCCCCOC(=O)/C=C\C(=O)NC(N)=O get here?
0 (no)
